# Kd annotations
# test_target: - (UniProt Q15116 25-167)
# Sequence (Q15116 25-167): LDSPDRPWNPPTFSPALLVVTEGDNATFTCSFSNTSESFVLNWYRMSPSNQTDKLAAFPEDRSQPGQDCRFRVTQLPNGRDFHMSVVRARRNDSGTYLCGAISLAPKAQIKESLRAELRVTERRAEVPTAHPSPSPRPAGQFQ
# assay: SPR (Biacore T200)
Kindly format the answer as number then unit.

>  <binder>
Variant 5 (scFv, V domains shown) VH: EVQLVESGGGLVQPGGSLRLSCAASGFTFSSYTMSWVRQAPGKGLEWVSYISHGGGDTYYPDSVKGRFTISRDNSKNTLYLQMNSLRAEDTAVYYCARHSGYERGYYYVMDYWGQGTLVTVSS VL: DIVMTQSPDSLAVSLGERATINCKASESVDYYGFSFLNWFQQKPGQPPKLLIYAASNRESGVPDRFSGSGSGTDFTLTISSLQAEDVAVYYCQQSKEVPWTFGQGTKLEIKR

>  <Kd>
2.3 nM

$$$$
>  <binder>
Variant 4 (scFv, V domains shown) VH: EVQLVESGGGLVQPGGSLRLSCAASGFTFSSYTMSWVRQAPGKGLEWVSYISHGGGDTYYPDSVKGRFTISRDNSKNTLYLQMNSLRAEDTAVYYCARHSGYERGYYYVMDYWGQGTLVTVSS VL: DIVMTQSPDSLAVSLGERATINCKSSESVDYYGFSFLNWFQQKPGQPPKLLIYAASNRESGVPDRFSGSGSGTDFTLTISSLQAEDVAVYYCQQSKEVPWTFGQGTKLEIKR

>  <Kd>
3.6 nM

$$$$
>  <binder>
Variant 8 (scFv, V domains shown) VH: EVKLLESGGGLVQPGGSLRLSCAASGFTFSSYTMSWVRQAPGKGLEWVSYISHGGGDTYYPDSVKGRFTISRDNSKNTLYLQMNSLRAEDTAVYYCARHSGYERGYYYVMDYWGKGTTVTVSS VL: DIVMTQSPDSLAVSLGERATINCKASESVDYYGFSFLNWFQQKPGQPPKLLIYAASNRESGVPDRFSGSGSGTDFTLTISSLQAEDVAVYYCQQSKEVPWTFGQGTKLEIK

>  <Kd>
2.6 nM

$$$$

Now for a further binder.
Look up Kd of Variant 1 (scFv, V domains shown) VH: EVQLVESGGGLVQPGGSLRLSCAASGFTFSSYTMSWVRQAPGKGLEWVSYISHGGGDTYYADSVKGRFTISRDNSKNTLYLQMNSLRAEDTAVYYCARHSGYERGYYYVMDYWGQGTLVTVSS VL: DIVMTQSPDSLAVSLGERATINCKSSESVDYYGFSFLNWFQQKPGQPPKLLIYAASNRESGVPDRFSGSGSGTDFTLTISSLQAEDVAVYYCQQSKEVPWTFGQGTKLEIKR and report it. 5.8 nM
